Data provenance: ChEMBL document CHEMBL1139526

EC50: recorded values
- Tested on: PBMC
- Assay explanation: In vitro effective concentration against HBV in human peripheral blood mononuclear cells
- Assay type: functional, cell-based
Unit nM implied. Number only.

Here is how some compounds turned out for EC50.
Test smiles | Assay readout | Units | Assay result
Nc1ncnc2c1ncn2[C@@H]1O[C@H](CO)C=C1F | EC50 | nM | 1700
Nc1nc(=O)n([C@@H]2O[C@H](CO)C=C2F)cc1F | EC50 | nM | 220

We now examine a further compound.
Enquiry: Return reported EC50; argument: Nc1ccn([C@@H]2O[C@H](CO)C=C2F)c(=O)n1
Return: 800
